Target of assay: Aminopeptidase N (Plasmodium falciparum FcB1/Columbia)
Sequence (O96935 whole entry): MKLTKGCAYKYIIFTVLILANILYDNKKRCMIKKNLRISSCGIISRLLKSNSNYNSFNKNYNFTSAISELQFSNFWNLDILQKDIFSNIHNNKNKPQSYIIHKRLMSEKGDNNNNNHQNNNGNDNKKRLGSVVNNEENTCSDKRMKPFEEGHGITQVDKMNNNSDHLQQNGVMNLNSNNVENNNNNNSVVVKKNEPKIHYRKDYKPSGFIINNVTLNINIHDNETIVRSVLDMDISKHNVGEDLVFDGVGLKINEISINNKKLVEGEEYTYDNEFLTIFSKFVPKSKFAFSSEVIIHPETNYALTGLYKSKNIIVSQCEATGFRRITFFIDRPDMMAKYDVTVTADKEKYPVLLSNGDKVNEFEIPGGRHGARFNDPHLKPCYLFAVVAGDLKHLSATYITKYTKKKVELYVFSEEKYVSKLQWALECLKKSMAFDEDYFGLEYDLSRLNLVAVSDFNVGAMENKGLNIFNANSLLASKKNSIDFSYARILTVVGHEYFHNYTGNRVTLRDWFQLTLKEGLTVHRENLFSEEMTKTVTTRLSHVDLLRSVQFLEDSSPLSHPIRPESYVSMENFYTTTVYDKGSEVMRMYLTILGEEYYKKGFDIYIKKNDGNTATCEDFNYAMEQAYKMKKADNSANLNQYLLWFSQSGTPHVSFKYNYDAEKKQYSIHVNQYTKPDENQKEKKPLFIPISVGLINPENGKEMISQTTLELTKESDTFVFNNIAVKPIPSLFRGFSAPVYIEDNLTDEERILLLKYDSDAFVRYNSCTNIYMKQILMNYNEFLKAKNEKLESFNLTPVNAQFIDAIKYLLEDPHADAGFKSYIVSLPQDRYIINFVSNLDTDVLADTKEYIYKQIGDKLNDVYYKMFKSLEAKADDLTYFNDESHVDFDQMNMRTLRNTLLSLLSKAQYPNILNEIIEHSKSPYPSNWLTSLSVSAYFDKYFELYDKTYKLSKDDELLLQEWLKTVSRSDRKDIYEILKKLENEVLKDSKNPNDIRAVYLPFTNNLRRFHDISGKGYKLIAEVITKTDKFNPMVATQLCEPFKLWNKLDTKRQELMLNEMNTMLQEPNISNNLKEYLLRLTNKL
Assay comment: P. falciparum M1AAP inhibitors, biochemical, fluorogenic H-Leu-NHMec substrate, 1536-well (AID 1445)
Set-up: species or system Plasmodium falciparum 3D7, 3D7
Calls of active or inactive are those of the source.
Readout type: IC50

>>> meas_value("Cc1noc(NS(=O)(=O)c2ccc(NC(=O)C(CC(C)C)N3C(=O)c4ccccc4C3=O)cc2)c1C (stereo not given)")
"7.56 µM (active)"
>>> meas_value("CCN(CC)C(=O)Cn1c(=O)n(-c2ccccc2)c(=O)c2c3c(sc21)CCC3")
"51.2 µM (active)"
>>> meas_value("O=C1c2ccccc2C(=O)c2c(NCCCN(CCO)CCO)cccc21")
"77.7 µM (active)"
>>> meas_value("CN(C)Cc1c(O)ccc2c3c(c(=O)oc12)CCCCC3")
"44.5 µM (active)"
>>> meas_value("COc1cc(/C=C2\\SC(NS(=O)(=O)c3ccccc3)=NC2=O)c([N+](=O)[O-])cc1OC")
"25.5 µM (active)"
>>> meas_value("O=C(Oc1c(-c2ccco2)oc2ccccc2c1=O)c1cccnc1")
"129 µM (active)"
>>> meas_value("Nc1nnc(CC(=O)N/N=C/c2cc([N+](=O)[O-])cc(Br)c2O)s1")
"30 µM (active)"
>>> meas_value("O=c1oc2c(CN3CCOCC3)c(O)ccc2c2c1CCCC2")
"23.7 µM (active)"
>>> meas_value("CN(C)c1oc(-c2cccs2)nc1C#N")
"104 µM (active)"
>>> meas_value("CCc1nnc(NS(=O)(=O)c2ccc(NC(=S)NC(=O)c3cccs3)cc2)s1")
"35.4 µM (active)"

====

Target of assay: Glucose-6-phosphate 1-dehydrogenase (Homo sapiens, UniProt P11413)
Sequence (P11413 whole entry): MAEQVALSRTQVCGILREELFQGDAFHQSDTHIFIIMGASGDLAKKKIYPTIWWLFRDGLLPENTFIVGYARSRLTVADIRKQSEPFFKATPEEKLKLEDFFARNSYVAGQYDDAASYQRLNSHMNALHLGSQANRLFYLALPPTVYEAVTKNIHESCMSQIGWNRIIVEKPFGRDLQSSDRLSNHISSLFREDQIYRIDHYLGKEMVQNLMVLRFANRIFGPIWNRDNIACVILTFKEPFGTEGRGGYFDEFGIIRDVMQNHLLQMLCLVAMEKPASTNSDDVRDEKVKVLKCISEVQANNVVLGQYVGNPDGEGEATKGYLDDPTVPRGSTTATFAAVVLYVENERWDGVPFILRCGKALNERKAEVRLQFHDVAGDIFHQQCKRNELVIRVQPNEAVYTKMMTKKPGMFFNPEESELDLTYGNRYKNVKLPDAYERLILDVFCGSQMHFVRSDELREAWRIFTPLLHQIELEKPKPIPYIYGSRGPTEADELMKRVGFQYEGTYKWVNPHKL
Assay comment: human G6PD enzyme inhibitors, dose response, selectivity assay for P. falciparum G6PD inhibitor project, biochemical, fluorescence (AID 504792)
Assay type: functional
The source made the active and inactive calls.
Readout type: IC50

>>> meas_value("CCCCOc1ccc(Cc2nnc(S)n2N)cc1")
"> 80 µM (inactive)"
>>> meas_value("C/[N+]([O-])=C\\c1ccc2cccc(O)c2n1")
"> 80 µM (inactive)"
>>> meas_value("Cn1c(-c2sccc2OCc2cccc(C(F)(F)F)c2)n[nH]c1=S")
"> 80 µM (inactive)"
>>> meas_value("Cc1ccc(N2CC(C(=O)OCC(=O)c3ccc([N+](=O)[O-])cc3)CC2=O)cc1 (centres undefined)")
"> 80 µM (inactive)"

====

Tested on: P388;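 note: compound exposure lasted 48 hours before growth was measured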
Assay comment: cells
Format: functional
Measurement setup: Mus musculus
Active and inactive are the calls of the source.
Possible outcomes: 1 (active), -1 (inactive)

>>> cat("COC(=O)c1cccc(N[C@@H]2c3cc4c(cc3C(c3cc(OC)c(O)c(OC)c3)[C@H]3C(=O)OCC32)OCO4)c1 (stereo partly specified)")
1
>>> cat("CC(C)[C@](O)(C(=O)OCC1=CCN2CC[C@@H](O)[C@@H]12)[C@H](C)O")
-1
>>> cat("Cc1c2cnccc2c(C)c2c1c1ccccc1n2CC1CO1 (stereo unspecified)")
1
>>> cat("c1ccc2c3c(ccc2c1)-c1[nH]ncc1CCO3")
-1
>>> cat("CCOC(=O)NC1=C(N2CC2)C(=O)C(NC(=O)OCC)=C(N2CC2)C1=O")
-1
>>> cat("O=C1C(Br)=CC2([N+](=O)[O-])CCNC3=C(C4=NCCc5c[nH]c(c54)C3=O)C2=C1Br (stereo unspecified)")
1

====

Target of assay: Rac GTPase-activating protein 1 (Homo sapiens, UniProt Q9H0H5)
Sequence (Q9H0H5 whole entry): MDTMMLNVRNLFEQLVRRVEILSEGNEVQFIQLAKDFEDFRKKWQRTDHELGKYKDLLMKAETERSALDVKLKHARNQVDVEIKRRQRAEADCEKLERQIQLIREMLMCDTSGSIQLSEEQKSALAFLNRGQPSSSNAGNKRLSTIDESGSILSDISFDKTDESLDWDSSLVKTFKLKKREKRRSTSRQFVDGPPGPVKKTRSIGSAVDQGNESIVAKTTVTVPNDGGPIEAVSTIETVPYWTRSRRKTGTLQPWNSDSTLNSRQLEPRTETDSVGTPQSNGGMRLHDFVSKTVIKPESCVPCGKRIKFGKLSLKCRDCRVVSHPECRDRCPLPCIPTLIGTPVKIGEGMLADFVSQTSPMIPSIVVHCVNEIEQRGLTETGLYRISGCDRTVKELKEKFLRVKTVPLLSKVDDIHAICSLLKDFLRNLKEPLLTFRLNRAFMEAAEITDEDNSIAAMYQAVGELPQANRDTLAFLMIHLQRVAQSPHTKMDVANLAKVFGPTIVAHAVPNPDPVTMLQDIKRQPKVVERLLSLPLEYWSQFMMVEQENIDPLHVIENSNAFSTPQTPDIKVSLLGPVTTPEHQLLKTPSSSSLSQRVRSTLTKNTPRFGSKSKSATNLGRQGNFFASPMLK
Assay comment: MgcRacGAP GTPase-activating activity inhibitors, confirmation, biochemical, ADP Hunter fluorescence, primary and confirmatory (AID 624330)
Assay type: functional
Activity calls are given as the source filed them.
Readout type: IC50

>>> meas_value("O=C1/C(=N\\c2ccc(O)cc2)C=C(O)c2ccccc21")
"23.7 µM (active)"
>>> meas_value("COc1ccccc1OCC#CCn1ccnc1")
"160 µM (active)"
>>> meas_value("OCCCN=C(S)Nc1ccc(Nc2ccccc2)cc1")
"88 µM (active)"
>>> meas_value("Oc1ccc(Br)cc1/C=N/c1ccc2c3c(cccc13)CC2")
"33.5 µM (active)"
>>> meas_value("C/N=C1/S/C(=C\\c2ccc(O)c(Br)c2)C(=O)N1C")
"42 µM (active)"
>>> meas_value("COc1cc(/C=N/n2c(S)nnc2C2CCCCC2)ccc1O")
"47.9 µM (active)"
>>> meas_value("Cc1cc(O)ccc1N/C=C1\\CCCC1=O")
"22.7 µM (active)"
>>> meas_value("COc1cc(NC(=O)COC(=O)/C=C/c2ccc(O)c(OC)c2)cc(OC)c1")
"51.7 µM (active)"
>>> meas_value("COc1cccc(OC)c1OCCCCN1CCCC1")
"204 µM (active)"
>>> meas_value("COc1ccc(C(=O)N/N=C/c2ccc(N3CCOCC3)s2)cc1OC")
"110 µM (active)"
>>> meas_value("OCCN(CCO)c1ccc2ccccc2c1")
"56.3 µM (active)"
>>> meas_value("CCc1nc(Nc2ccc(O)cc2)c2oc3ccccc3c2n1")
"18.2 µM (active)"

====

The following compounds are shown together with reported AC50 values.
Assay comment: Luminescence Cell-Based Dose Retest to Confirm Inhibitors of Cancer Stem Cells. [Related pubchem assays (depositor defined):AID2717, AID2721]
Format: functional
Measurement setup: Homo sapiens
Activity calls are given as the source filed them.
Readout type: AC50

>>> meas_value("COc1cccc(C(=O)/C=C/c2ccc(N3CCCCC3)c([N+](=O)[O-])c2)c1")
"7.86 µM (active)"
>>> meas_value("Cc1ccc(/C=N/NC(=O)c2ccc3c(c2)OCCO3)s1")
"1.48 µM (active)"
>>> meas_value("CC(C)N(CCC(=O)c1ccc2ccccc2c1)Cc1ccccc1")
"5.58 µM (active)"
>>> meas_value("COc1ccc(C(=O)NCC2(c3ccccc3)CCCC2)c(OC)c1")
"1.22 µM (active)"

====

Readings of EC50 for the listed molecules
Assay comment: C. albicans growth with fluconazole, confirmation, fluorescence, retest (AID 2467)
Assay type: functional, cell-based
The source made the active and inactive calls.
Readout type: EC50

>>> meas_value("CCOC(=O)C1CCN(CCC(=O)Nc2ccc(F)cc2)CC1")
"5.18 µM (active)"
>>> meas_value("CCOC(=O)c1ccc(NC(=O)c2ccc(CO)c(C(=O)NC3CCN(C(=O)OCC)CC3)c2)cc1")
"> 38 µM (not active)"
>>> meas_value("Cc1cc(C)cc(OCC(=O)NNC(=S)NC(=O)C2CC2)c1")
"0.962 µM (active)"
>>> meas_value("C/C(CC(C)(C)C1CCCCC1)=N\\NC(N)=S")
"2.9 µM (active)"
>>> meas_value("CC[n+]1c(C=CN(C)c2ccccc2)sc2ccc(Cl)cc21.[O-][Cl+3]([O-])([O-])[O-]")
"3.29 µM (active)"
>>> meas_value("CC(=O)O/N=C/c1c(N2CCOCC2)n(C)c2ccccc12")
"0.145 µM (active)"
>>> meas_value("CCN(CC)C(=O)Cn1c(=O)n(-c2ccccc2)c(=O)c2c3c(sc21)CCC3")
"> 38 µM (not active)"
>>> meas_value("CN1CCN(CCCNC(=O)c2ccc(/C=C3\\Oc4ccccc4N(Cc4ccc(Cl)cc4)C3=O)cc2)CC1")
"> 38 µM (not active)"
